The measurements presented in this section are drawn from paper PMC5540273.

# %Inh annotations
Test system: ULK3
Measurement Context: concentration: 1 μM, replicates: in singlicate; n = 1;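 note: KINOMEscan kinase panel screen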
Give the number; % is assumed, so skip it.

The cases that follow already have their %Inh on record.
>>> measured_number("Clc1cccc(-c2nc(Nc3ccncc3)c3ccccc3n2)c1 [GW873004]")
0
>>> measured_number("O=C(NCCCN1CCCC1=O)c1cnc(NCc2cc(Cl)ccc2Cl)nc1NC1CCNCC1")
0
>>> measured_number("CC(C)N1CCC(n2cnc(-c3ccc(F)cc3)c2-c2ccnc(N)n2)CC1 [SB-223132]")
5
>>> measured_number("Fc1cccc(COc2ccc(Nc3ncnc4cc[nH]c34)cc2Cl)c1")
34

Here is the next item to consider.
[Q] Name the reported %Inh value associated with the molecule "Cn1ccc2ncnc(Oc3ccc(NC(=O)Nc4cccnc4)c(Cl)c3)c21"
[A] 0

---

Tested on: PIP5K2C
Construct: gene PIP4K2C
Measurement Context: concentration: 1 μM, replicates: in singlicate; n = 1
Readout Label: %Inh (%)
Give the number; % is assumed, so skip it.

The cases that follow already have their %Inh on record.
>>> measured_number("Fc1cccc(COc2ccc(Nc3ncnc4cc[nH]c34)cc2Cl)c1")
5
>>> measured_number("O=C(NCCCN1CCCC1=O)c1cnc(NCc2cc(Cl)ccc2Cl)nc1NC1CCNCC1")
2
>>> measured_number("Nc1nc(-c2cccnc2)c(-c2ccnc3ccccc23)s1")
51

[Q] Name the reported %Inh value associated with the molecule "O=C(c1ccc(-c2cc(-c3c[nH]nc3-c3ccccn3)ccn2)cc1)N1CCCC1"
[A] 97

[Q] Name the reported %Inh value associated with the molecule "Cl.c1ccc(Cn2ncc3cc(Nc4ncnc5ccccc45)ccc32)cc1"
[A] 0

---

System: MELK
Measurement Context: concentration: 1 μM, replicates: in singlicate; n = 1
Readout Label: %Inh
State the value, then name its unit.

>>> result("COc1ccc(NC(=O)c2ccc(-c3cc(-c4nnc(C)o4)ccc3C)cc2)cc1")
"0%"

[Q] Name the reported %Inh value associated with the compound "O=C(Nc1ccccc1)Nc1ccc(Oc2ccc3nccn3n2)cc1"
[A] 10%

[Q] Name the reported %Inh value associated with the compound "C[C@@H]1CCN(C(=O)CO)C[C@@H]1N(C)c1ncnc2[nH]ccc12"
[A] 0%

[Q] Name the reported %Inh value associated with the compound "Cl.Cn1ccc(-c2cccc(Nc3ccnc4cc(-c5nccs5)ccc34)c2)n1"
[A] 0%

[Q] Name the reported %Inh value associated with the compound "O=C(Nc1n[nH]c2nc(-c3ccco3)c(Br)cc12)c1ccc(CN2CCCC2)cc1.O=C(O)[C@H](O)[C@@H](O)C(=O)O"
[A] 3%

---

# %Inh annotations
Test system: WNK2
Measurement Context: concentration: 1 μM, replicates: in singlicate; n = 1
Give the number; % is assumed, so skip it.

The cases that follow already have their %Inh on record.
>>> measured_number("COc1ccc(NC(=O)Nc2ccc(C)c(-c3ccc(C(=O)Nc4ccncc4)cc3)c2)cc1")
0
>>> measured_number("CC(C)N1CCC(n2cnc(-c3ccc(F)cc3)c2-c2ccnc(N)n2)CC1")
0
>>> measured_number("Nc1nc(-c2ccc3c(N)n[nH]c3c2)cc(N2CCC[C@@H](C(=O)Nc3ccccc3)C2)n1.O=C(O)C(F)(F)F.O=C(O)C(F)(F)F")
6
>>> measured_number("Cl.c1ccc(Cn2ccc3cc(Nc4ncnc5ccccc45)ccc32)cc1")
18
>>> measured_number("CCc1nc(-c2cccc(N(C)S(=O)(=O)c3ccccc3)c2)c(-c2ccnc(Nc3ccc(N4CCN(C(C)=O)CC4)nc3)n2)s1")
0

[Q] Name the reported %Inh value associated with the molecule "CCc1nc(-c2cccc(C)c2)c(-c2ccnc(NC(=O)c3ccccc3)c2)s1"
[A] 59

[Q] Name the reported %Inh value associated with the molecule "Nc1nc(-c2ccccn2)c(-c2ccnc3ccccc23)s1"
[A] 11

[Q] Name the reported %Inh value associated with the molecule "Cc1ccc(NC(=O)c2cccc(C#N)c2)cc1-c1ccc(C(=O)Nc2ccncc2)cc1"
[A] 6

[Q] Name the reported %Inh value associated with the molecule "COc1cc2c(Nc3cccc(NC(=O)c4ccccc4)c3)ncnc2cc1OCCCN1CCOCC1"
[A] 10

[Q] Name the reported %Inh value associated with the molecule "N#Cc1ccc(Oc2ccc(Nc3ncnc4cc[nH]c34)cc2Cl)cc1"
[A] 7

[Q] Name the reported %Inh value associated with the molecule "Clc1cc(Nc2ncnc3cc[nH]c23)ccc1OCc1ccccn1"
[A] 1

[Q] Name the reported %Inh value associated with the molecule "CCC(CC)(CC)n1cnc2c(N)ncnc21"
[A] 0

[Q] Name the reported %Inh value associated with the molecule "Cn1cc(-c2ccc3c(c2)CCN3C(=O)Cc2cccc(C(F)(F)F)c2)c2c(N)ncnc21"
[A] 7

[Q] Name the reported %Inh value associated with the molecule "O=C(Nc1n[nH]c2nc(-c3ccco3)c(Br)cc12)c1ccc(CN2CCCC2)cc1.O=C(O)[C@H](O)[C@@H](O)C(=O)O"
[A] 0
